Source listed as ChEMBL document CHEMBL5291721.

Target: Histamine H2 receptor (Homo sapiens); note: assay procedure not described here
Sequence (P25021 whole entry): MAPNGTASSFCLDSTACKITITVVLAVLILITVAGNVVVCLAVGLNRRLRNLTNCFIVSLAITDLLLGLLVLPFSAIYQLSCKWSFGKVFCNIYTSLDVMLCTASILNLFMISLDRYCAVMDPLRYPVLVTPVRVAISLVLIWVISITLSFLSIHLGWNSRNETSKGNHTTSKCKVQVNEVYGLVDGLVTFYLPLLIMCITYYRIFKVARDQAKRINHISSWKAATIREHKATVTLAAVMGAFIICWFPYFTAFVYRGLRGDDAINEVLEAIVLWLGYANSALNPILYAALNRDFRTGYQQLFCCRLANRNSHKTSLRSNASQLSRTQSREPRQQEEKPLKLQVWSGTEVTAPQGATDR
Assay type: functional, cell-based
metric: AC50

[ask] # AC50 lookup, item CC(=O)OCC1=C(C(=O)O)N2C(=O)[C@@H](NC(=O)CSc3ccncc3)[C@H]2SC1
[reply] > 10 µM

[ask] # AC50 lookup, item COC(=O)c1ccc2c(c1)NC(=O)/C2=C(\Nc1ccc(N(C)C(=O)CN2CCN(C)CC2)cc1)c1ccccc1
[reply] > 30 µM

[ask] # AC50 lookup, item CCC1(c2ccccc2)C(=O)NCNC1=O
[reply] > 10 µM

[ask] # AC50 lookup, item N=C(N)NC(=O)c1nc(Cl)c(N)nc1N [AMILORIDE]
[reply] > 30 µM

[ask] # AC50 lookup, item CC1Cc2ccccc2N1NC(=O)c1ccc(Cl)c(S(N)(=O)=O)c1 (stereo not given) [INDAPAMIDE]
[reply] > 10 µM
